test system: E. coli GC 2232; assay: MIC, broth microdilution; settings: Escherichia coli, GC2232, E. coli GC 2232; Mouse Serum pre-incubation
In this section, each of the molecules is paired with its reported MIC.
measured.parameter: MIC

{"smiles.text": "CCCN(CC(=O)Nc1cc(N(C)C)c2c(c1O)C(=O)C1=C(O)[C@]3(O)C(=O)C(C(N)=O)=C(O)[C@@H](N(C)C)[C@@H]3C[C@@H]1C2)C(=O)OCC", "measured.parameter": "MIC", "measured.result": "> 64 mg/L"}
{"smiles.text": "CCCN(CC(=O)Nc1cc(N(C)C)c2c(c1O)C(=O)C1=C(O)[C@]3(O)C(=O)C(C(N)=O)=C(O)[C@@H](N(C)C)[C@@H]3C[C@@H]1C2)C(=O)OCC(C)C", "measured.parameter": "MIC", "measured.result": "> 64 mg/L"}
{"smiles.text": "CCCN(CC(=O)Nc1cc(N(C)C)c2c(c1O)C(=O)C1=C(O)[C@]3(O)C(=O)C(C(N)=O)=C(O)[C@@H](N(C)C)[C@@H]3C[C@@H]1C2)C(=O)OCc1ccccc1", "measured.parameter": "MIC", "measured.result": "> 64 mg/L"}

Value source: patent US20070049564A1
